B1: TRIM55 (parent)
chain: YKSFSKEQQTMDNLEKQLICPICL

# Variants of: B1
# assay-notes: protein stability index of a GFP-peptide fusion (GPS, HEK-293T) (PSI 1-6); higher = more stable;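 further: lentivirally expressed fusions sorted by FACS into six bins by GFP to DsRed ratio, PSI derived from sequencing read proportions per bin multiplied by bin number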
# conditions: c terminus: a fixed tail appended
protein stability index values, listed per item
Respond using a number only.

Please review the entries below; each comes with its answer.
biopolymer-sequence: YKSFSKEQQTMDNLEKHLICPICL [Q17H]
experimental-value: 2.23
//
biopolymer-sequence: YKSFSKEQQNMDNLEKQLICPICL [T10N]
experimental-value: 2.26
//
biopolymer-sequence: YKSFSKEQQTMDFLEKQLICPICL [N13F]
experimental-value: 2.34
//
biopolymer-sequence: YKSFSKEQQTMDNYEKQLICPICL [L14Y]
experimental-value: 1.98
//
biopolymer-sequence: YKSFSKEQQTMDNGEKQLICPICL [L14G]
experimental-value: 2.6
//
biopolymer-sequence: YSSFSKEQQTMDNLEKQLICPICL [K2S]
experimental-value: 2.38
//
biopolymer-sequence: YKSFSFEQQTMDNLEKQLICPICL [K6F]
experimental-value: 1.3
//
biopolymer-sequence: YKSFSKEQQTMDNLEKQWICPICL [L18W]
experimental-value: 1.95

Short answer for YKSFSKEQQTMDNLEKQLICPACL [I22A] : protein stability index was 2.23

Short answer for YKSFSKEQQTMDNLPKQLICPICL [E15P] : protein stability index was 2.51

Short answer for YKSFSKEQQTYDNLEKQLICPICL [M11Y] : protein stability index was 2.1

Short answer for YKSFRKEQQTMDNLEKQLICPICL [S5R] : protein stability index was 2.11

Short answer for YKSFSKEQQTMDCLEKQLICPICL [N13C] : protein stability index was 2.02

Short answer for YKSFSKEQQTMDNLEKQLIMPICL [C20M] : protein stability index was 1.82

Data provenance: the supplement of paper PMC10567573
